Entry source: patent US5380729A

# measured-target: PCP recognition sites
# protocol-description: [3H]TCP Radioreceptor Assay (internal screen)
# Format: binding, rat (male Sprague-Dawley
# details: rat whole brain membranes; ~1 nM [3H]TCP; room temperature, 25 min
# Procedure: [^3 H]TCP Radioreceptor Assay (internal screen) [^3 H]TCP binding to PCP recognition sites was performed as described by Vignon et al. Brain Research 1983, 280, 194°197. Male Sprague-Dawley rats were sacrificed by decapitation, and whole brains were homogenized in 10 volumes (wt/vol) of cold Tris-HCl buffer (50 mM, pH 7.7) using a Brinkmann Polytron (setting 6, 30 sec). The homogenate was centrifuged at 40,000×g for 10 min at 4° C. […]
observation-type: pKi
Give bare numbers, as −log10 of the molar value.

Example cases with answers are listed next.
compound: CCOC1(OCC)C2c3ccccc3C([n+]3ccccc32)C1(C)C (single isomer, unassigned) [7(b)]
pKi: 7.85
//
compound: CCOC1(OCC)C2c3c(C)cccc3C([n+]3ccccc32)C1(C)C.[O-][Cl+3]([O-])([O-])[O-] (stereo not drawn)
pKi: 7.34
//
compound: COC1(O[Si](C)(C)C)C2c3ccccc3C([n+]3ccccc32)C1(C)C.[O-][Cl+3]([O-])([O-])[O-] (stereo not drawn)
pKi: 5.80
//
compound: CCOC1(OCC)C2c3ccccc3C([n+]3c(C)cccc32)C1(C)C (stereo not drawn)
pKi: 6.50
//
compound: C[C@@H]1C[C@@H](C)OC2(O1)C1c3ccccc3C([n+]3ccccc31)C2(C)C (single isomer, unassigned) [Example 10(c)]
pKi: 6.44
//
compound: C[C@@H]1C[C@@H](C)OC2(O1)C1c3ccccc3C([n+]3ccccc31)C2(C)C (stereo partly drawn) [Example 45]
pKi: 6.29
//
compound: CCOC1(OCC)C2c3ccccc3C(C1Br)[n+]1ccccc12.[O-][Cl+3]([O-])([O-])[O-] (stereo not drawn)
pKi: 7.69
//
compound: C[C@@H]1C[C@@H](C)OC2(O1)C1c3ccccc3C([n+]3ccccc31)C2(C)C (single isomer, unassigned) [Example 10(b)]
pKi: 6.21

Batch request: pKi for each of the following compounds.
1. COC1(OC)C2c3ccccc3C([n+]3ccccc32)C1(C)C.[O-][Cl+3]([O-])([O-])[O-] (stereo not drawn)
2. CCOC1C2c3ccccc3C([n+]3ccccc32)C1(C)C (single isomer, unassigned)
3. CCOC1(OCC)C2c3c(O)cccc3C([n+]3ccccc32)C1(C)C (stereo not drawn)
4. CCOC1(OCC)C2c3ccccc3C([n+]3ccccc32)C1(C)C (stereo not drawn) [Example 3]
5. CCOC1(OCC)C2c3c(O)cccc3C([n+]3ccccc32)C1(C)C.[O-][Cl+3]([O-])([O-])[O-] (stereo not drawn)
6. CCOC1(OCC)C(C)C2c3ccccc3C1(C)c1cccc[n+]12.[O-][Cl+3]([O-])([O-])[O-] (stereo not drawn)

(A)
[6.95, 6.29, 8.16, 8.25, 8.10, 7.41]

(Q) pKi for CCOC1(OCC)C2c3cc(OC)ccc3C([n+]3ccccc32)C1(C)C (single isomer, unassigned) [20(a)] ?
(A) 8.45
